I'd be grateful if you could share measured concentration at 16 weeks post XRT for these entries.
Assay: Lignan content in murine plasma (LC/MS/MS)
Type: in vivo, mice
Settings: oral, 10 % FS (flaxseed) in diet, FS-fed (10% FS) mouse groups, 4 months post-irradiation, read-out: circulating plasma level

The value of concentration at 16 weeks post XRT measured for the molecule O=C1OC[C@H](Cc2cccc(O)c2)[C@H]1Cc1cccc(O)c1 turned out to be 103 to 325 ng/mL

Documented concentration at 16 weeks post XRT of OC[C@H](Cc1cccc(O)c1)[C@H](CO)Cc1cccc(O)c1 : 14 to 405 ng/mL

# credit: patent US10045951B2
